System: total serum cholesterol in beagle dogs
experimental details: Lowering activity of blood cholesterol in beagle dogs
Type: in vivo, beagle dog
experimental conditions: Canis lupus familiaris, po, 120 h, beagle dogs, 100 mg/kg/day, oral twice per day, 5 days; read-out: Lowering rate of total serum cholesterol
Text: The test was to orally administer an encapsulated test sample twice per day, in the morning (9 o'clock) and evening (16 o'clock), for continuous 5 days, collect a blood sample in the morning after 5 days and determine a total cholesterol level in serum by a conventional method.
parameter measured: inhibition in vivo at 100 mg/kg/day
The answer should read as a number with its unit following.

Param readout= inhibition in vivo at 100 mg/kg/day; system= total serum cholesterol in beagle dogs; entry= CCC(C)C(=O)OC1CCC=C2C=CC(C)C(CCC(O)CC(O)CC(=O)OCc3ccc(Cl)cc3)C21 (centres unmarked) [4-chlorobenzyl, 4-Chlorobenzyl ML-236B carboxylate] ; returns value.
36%

Param readout= inhibition in vivo at 100 mg/kg/day; system= total serum cholesterol in beagle dogs; entry= CCC(C)C(=O)OC1CCC=C2C=CC(C)C(CCC(O)CC(O)CC(=O)OC(C)C)C21 (centres unmarked) [isopropyl, Isopropyl ML-236B carboxylate] ; returns value.
30%

Param readout= inhibition in vivo at 100 mg/kg/day; system= total serum cholesterol in beagle dogs; entry= CCC(C)C(=O)OC1CCC=C2C=CC(C)C(CCC(O)CC(O)CC(=O)OCC(=O)c3ccc(OC)cc3)C21 (centres unmarked) [4-methoxyphenacyl, 4-Methoxyphenacyl ML-236B carboxylate] ; returns value.
39%

Param readout= inhibition in vivo at 100 mg/kg/day; system= total serum cholesterol in beagle dogs; entry= CCC(C)C(=O)OC1CCC=C2C=CC(C)C(CCC(O)CC(O)CC(=O)OCC(=O)c3ccc(C)cc3)C21 (centres unmarked) [4-methylphenacyl, 4-Methylphenacyl ML-236B carboxylate] ; returns value.
33%

Param readout= inhibition in vivo at 100 mg/kg/day; system= total serum cholesterol in beagle dogs; entry= CCC(C)C(=O)OC1CCC=C2C=CC(C)C(CCC(O)CC(O)CC(=O)OCC(=O)c3ccccc3)C21 (centres unmarked) [phenacyl, Phenacyl ML-236B carboxylate] ; returns value.
42%

Every entry's value here was drawn from patent US4137322A.
